Numbers sourced from the supplement of paper PMC4380931.

System: C32
assay: apoptotic fraction of cells (caspase-3 NucView488 positive); higher = more apoptosis
test-context: 72 h; 0.316 µM
Kindly state apoptotic fraction of cells for each of the entries shown.
No unit in the answer, only the number.

Sample Cn1cnc2c(F)c(Nc3ccc(Br)cc3Cl)c(C(=O)NOCCO)cc21 [Selumetinib] ; apoptotic fraction of cells observed: 0.403

The reported apoptotic fraction of cells of the compound Cc1ccc(NC(=O)c2cccc(C(C)(C)C#N)c2)cc1Nc1ccc2ncn(C)c(=O)c2c1 [AZ628] was 0.676

Reported apoptotic fraction of cells of `CN(C)CCOc1ccc(-c2nc(-c3ccncc3)c(-c3ccc4c(c3)CC/C4=N\O)[nH]2)cc1` : 0.274

Documented apoptotic fraction of cells of CCCS(=O)(=O)Nc1ccc(F)c(C(=O)c2c[nH]c3ncc(-c4ccc(Cl)cc4)cc23)c1F [Vemurafenib] : 0.114

The recorded apoptotic fraction of cells for entry CCCS(=O)(=O)Nc1ccc(F)c(C(=O)c2c[nH]c3ncc(Cl)cc23)c1F [PLX4720] equals 0.215

----------
Test system: SKMEL28
assay: apoptotic fraction of cells (caspase-3 NucView488 positive); higher = more apoptosis
test-context: 48 h; 0.01 µM
For each entry below, report its apoptotic fraction of cells value.
In your answer, state the number alone without any accompanying words.

Kindly note the recorded apoptotic fraction of cells for `Cc1ccc(NC(=O)c2cccc(C(C)(C)C#N)c2)cc1Nc1ccc2ncn(C)c(=O)c2c1` , which is 0.0326

Kindly note the recorded apoptotic fraction of cells for `CN(C)CCOc1ccc(-c2nc(-c3ccncc3)c(-c3ccc4c(c3)CC/C4=N\O)[nH]2)cc1` , which is 0.034

Record `CCCS(=O)(=O)Nc1ccc(F)c(C(=O)c2c[nH]c3ncc(Cl)cc23)c1F` . Reported apoptotic fraction of cells: 0.0306

Consider `Cn1cnc2c(F)c(Nc3ccc(Br)cc3Cl)c(C(=O)NOCCO)cc21` . Its measured apoptotic fraction of cells is 0.0333

The compound listed as `CCCS(=O)(=O)Nc1ccc(F)c(C(=O)c2c[nH]c3ncc(-c4ccc(Cl)cc4)cc23)c1F` has a reported apoptotic fraction of cells of 0.0316

----------
Tested on: MZ7MEL
assay: apoptotic fraction of cells (caspase-3 NucView488 positive); higher = more apoptosis
test-context: 48 h; 0.316 µM
Consider the following molecules; for each one, report its apoptotic fraction of cells.
When you answer, write just the number.

Entry `CN(C)CCOc1ccc(-c2nc(-c3ccncc3)c(-c3ccc4c(c3)CC/C4=N\O)[nH]2)cc1` , tested on MZ7MEL, has a reported apoptotic fraction of cells of 0.0253

apoptotic fraction of cells value, target or system MZ7MEL, for `CCCS(=O)(=O)Nc1ccc(F)c(C(=O)c2c[nH]c3ncc(Cl)cc23)c1F` : 0.0205

`Cc1ccc(NC(=O)c2cccc(C(C)(C)C#N)c2)cc1Nc1ccc2ncn(C)c(=O)c2c1` on MZ7MEL gives apoptotic fraction of cells = 0.0421

`CCCS(=O)(=O)Nc1ccc(F)c(C(=O)c2c[nH]c3ncc(-c4ccc(Cl)cc4)cc23)c1F` tested on MZ7MEL gave apoptotic fraction of cells: 0.0203

Form field, apoptotic fraction of cells with MZ7MEL, item `Cn1cnc2c(F)c(Nc3ccc(Br)cc3Cl)c(C(=O)NOCCO)cc21` : 0.0385

----------
System: WM115
assay: apoptotic fraction of cells (caspase-3 NucView488 positive); higher = more apoptosis
test-context: 72 h; 0.01 µM
Consider the following compounds; for each one, report its apoptotic fraction of cells.
Enter the number alone.

The compound `CCCS(=O)(=O)Nc1ccc(F)c(C(=O)c2c[nH]c3ncc(-c4ccc(Cl)cc4)cc23)c1F` showed apoptotic fraction of cells equal to 0.0325

For record `Cc1ccc(NC(=O)c2cccc(C(C)(C)C#N)c2)cc1Nc1ccc2ncn(C)c(=O)c2c1` the listed apoptotic fraction of cells is 0.0285

The compound listed as `Cn1cnc2c(F)c(Nc3ccc(Br)cc3Cl)c(C(=O)NOCCO)cc21` shows apoptotic fraction of cells equal to 0.027

So, `CCCS(=O)(=O)Nc1ccc(F)c(C(=O)c2c[nH]c3ncc(Cl)cc23)c1F` ? Its apoptotic fraction of cells was 0.0316

Sample `CN(C)CCOc1ccc(-c2nc(-c3ccncc3)c(-c3ccc4c(c3)CC/C4=N\O)[nH]2)cc1` ; apoptotic fraction of cells observed: 0.031
